- protocol description: chemical genetic growth profiling, strain panel (AID 1159580);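 also: tested at 20 µM; growth read once vehicle control cultures reached saturation at 30 °C; 1 = growth at the plate median or of vehicle wells; lower values mean less growth of the strain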
- condition parameters: S. cerevisiae deletion strains, growth OD, locus YJL157C, strain FAR1, stronger effect = lower value
The campaign covered roughly 5,500 compounds. About 2,000 (36%) were called active. Another 18% or so got no clear call; they are omitted. The list shows a part of the results.
experimental readout: normalized growth
// no unit, no text: just the number

{"molecule": "O=C(NCC1COc2ccccc2O1)c1ccc(Cl)cc1 (stereo not given)", "meas value": 0.84}
{"molecule": "O=C(c1cccs1)N(Cc1cccnc1)Cc1ccc(Cl)cc1Cl", "meas value": 0.95}
{"molecule": "Cc1ccc(C)c(CSc2nc(C3CCCCC3)c(C#N)c(=O)[nH]2)c1", "meas value": 1}
{"molecule": "Clc1cc(Cl)cc(-c2nc(SCc3ccc(Cl)cc3Cl)n[nH]2)c1", "meas value": 0.942}

As a next step, examine the molecule that follows.
Qu. Which value of normalized growth has been reported for O=C(NCC(c1ccccc1)c1c[nH]c2ccccc12)c1ccc(C(F)(F)F)cc1 (stereo not given) in the records?
Ans. 0.989

###

- protocol description: chemical genetic growth profiling, strain panel (AID 1159580);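 also: tested at 20 µM; growth read once vehicle control cultures reached saturation at 30 °C; 1 = growth at the plate median or of vehicle wells; lower values mean less growth of the strain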
- condition parameters: S. cerevisiae deletion strains, growth OD, locus YLL026W, stronger effect = lower value
The campaign covered roughly 5,500 compounds. About 2,000 (36%) were called active. Not shown: some 18% with an inconclusive outcome. Some of the results follow.
experimental readout: normalized growth
// no unit, no text: just the number

{"molecule": "C/C=C1\\[C@H]2C=C(C)C[C@]1(N)c1ccc(=O)[nH]c1C2", "meas value": 1.01}

Qu. Which value of normalized growth has been reported for O=C(Nc1ccc(C(=O)O)c(O)c1)c1ccccc1 in the records?
Ans. 0.958

Qu. Which value of normalized growth has been reported for C#C[C@]1(O)CCC2C3CCC4=CC(=O)CC[C@@H]4C3CC[C@@]21C (some centres not stated) in the records?
Ans. 0.994

Qu. Which value of normalized growth has been reported for CC(C)CCCC1(C)C=Cc2c(O)c3c(c(CCC(C)C)c2O1)OC12C(CC4CC1C(C)(C)OC2(CCC(C)C(=O)O)C4O)C3=O (configuration not stated) in the records?
Ans. 0.997

Qu. Which value of normalized growth has been reported for COC(=O)Nc1nc2ccc(S(=O)c3ccccc3)cc2[nH]1 (configuration not stated) in the records?
Ans. 1

Qu. Which value of normalized growth has been reported for CC1(C)CC[C@]2(C)CC[C@]3(C)C(=CCC4[C@@]5(C)CC[C@H](O)C(C)(C)C5CC[C@]43C)C2C1 (some centres not stated) in the records?
Ans. 0.984

Qu. Which value of normalized growth has been reported for Nc1c2ccccc2nc2ccccc12 (tested in a mixture with another compound) in the records?
Ans. 0.707

Qu. Which value of normalized growth has been reported for COc1cc(C(=O)NCCCCCC(=O)O)cc(OC)c1OC in the records?
Ans. 0.964

Qu. Which value of normalized growth has been reported for COc1cc(N)c(Cl)cc1C(=O)NC1CCN(Cc2ccccc2)CC1 in the records?
Ans. 0.997

###

- protocol description: chemical genetic growth profiling, strain panel (AID 1159580);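 also: tested at 20 µM; growth read once vehicle control cultures reached saturation at 30 °C; 1 = growth at the plate median or of vehicle wells; lower values mean less growth of the strain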
- condition parameters: S. cerevisiae deletion strains, growth OD, locus YOR136W, strain idh2, stronger effect = lower value
Screen size: about 5,500 compounds; about 2,000 (36%) were called active. About 18% were inconclusive and are not listed. Some of the results follow.
experimental readout: normalized growth
// no unit, no text: just the number

Qu. Which value of normalized growth has been reported for CCOC(=O)OC(C)OC(=O)C1N2C(=O)C(NC(=O)[C@H](N)c3ccccc3)C2SC1(C)C (some centres not stated) in the records?
Ans. 0.974

Qu. Which value of normalized growth has been reported for CC1(C)CC[C@]2(C(=O)O)CC[C@]3(C)C(=CCC4[C@@]5(C)CC[C@@H](O)C(C)(C)C5CC[C@]43C)C2C1 (some centres not stated) in the records?
Ans. 1.01

Qu. Which value of normalized growth has been reported for CC1=CCC2C3(C)C1=CC(=O)OC3CC1C(C)(C)CC(O)C(O)C12C (configuration not stated) in the records?
Ans. 0.996

Qu. Which value of normalized growth has been reported for O=c1[nH]cc(F)c(=O)[nH]1 in the records?
Ans. 0.902
